- target-desc: hERG channel (Homo sapiens)
- Construct: expressed in transfected cells; host or cells: CHO (Chinese hamster ovary)
- Sequence (Q12809 whole entry): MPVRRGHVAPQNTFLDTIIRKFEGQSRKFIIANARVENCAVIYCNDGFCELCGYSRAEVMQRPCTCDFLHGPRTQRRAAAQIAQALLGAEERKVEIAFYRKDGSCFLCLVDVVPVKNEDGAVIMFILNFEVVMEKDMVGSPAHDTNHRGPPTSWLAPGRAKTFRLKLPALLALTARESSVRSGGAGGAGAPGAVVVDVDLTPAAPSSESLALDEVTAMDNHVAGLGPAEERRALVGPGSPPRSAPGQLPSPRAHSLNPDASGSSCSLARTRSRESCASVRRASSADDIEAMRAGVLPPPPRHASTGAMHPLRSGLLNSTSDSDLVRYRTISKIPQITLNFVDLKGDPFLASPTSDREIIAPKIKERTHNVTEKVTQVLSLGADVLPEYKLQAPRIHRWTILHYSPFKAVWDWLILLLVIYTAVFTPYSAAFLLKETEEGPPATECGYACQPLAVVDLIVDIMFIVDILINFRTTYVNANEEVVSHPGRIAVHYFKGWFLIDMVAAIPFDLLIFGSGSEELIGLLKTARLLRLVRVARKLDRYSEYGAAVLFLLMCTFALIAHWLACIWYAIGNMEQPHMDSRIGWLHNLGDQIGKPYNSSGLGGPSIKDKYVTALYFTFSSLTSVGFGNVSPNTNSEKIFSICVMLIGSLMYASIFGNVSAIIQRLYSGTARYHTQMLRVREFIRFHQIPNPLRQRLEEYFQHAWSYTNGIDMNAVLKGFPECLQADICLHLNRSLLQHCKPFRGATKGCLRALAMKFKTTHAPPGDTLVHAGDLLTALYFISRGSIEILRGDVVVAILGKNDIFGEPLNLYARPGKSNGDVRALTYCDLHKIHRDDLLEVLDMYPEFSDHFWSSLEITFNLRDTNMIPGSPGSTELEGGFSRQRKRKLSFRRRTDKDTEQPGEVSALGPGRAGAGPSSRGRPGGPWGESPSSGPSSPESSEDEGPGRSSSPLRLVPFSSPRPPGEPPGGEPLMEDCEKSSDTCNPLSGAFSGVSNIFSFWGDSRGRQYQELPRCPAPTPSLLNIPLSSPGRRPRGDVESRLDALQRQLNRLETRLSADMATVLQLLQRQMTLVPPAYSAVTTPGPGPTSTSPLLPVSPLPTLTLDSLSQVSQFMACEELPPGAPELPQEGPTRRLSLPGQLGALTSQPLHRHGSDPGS
- assay-method-text: hERG channel inhibition assay (patch-clamp, CHO hERG cells)
- Format: cell-based
- test-settings: human, CHO cells stably expressing hERG; CHO hERG cells, whole-cell patch-clamp
readout: IC20

{"columns": ["compound", "readout", "result"],
 "data": [
  ["C[C@@H]1CN(c2ccc(C#N)c3ncccc23)C[C@H](CN2CCN(c3ccc4c(c3)CN(CCO)C4)CC2)O1", "IC20", "> 10 µM"],
  ["C[C@@H]1CN(c2ccc(C#N)c3ncccc23)C[C@H](CN2CCN(c3ccc4c(c3)CCNC4)CC2)O1", "IC20", "> 10 µM"],
  ["C[C@@H]1CN(c2ccc(C#N)c3ncccc23)C[C@H](CN2CCN(c3ccc4c(n3)CCNC4)CC2)O1", "IC20", "7.07 µM"],
  ["C[C@@H]1Cc2cc(N3CCN(C[C@H]4CN(c5ccc(C#N)c6ncccc56)C[C@@H](C)O4)CC3)ncc2CN1 (single isomer, unassigned)", "IC20", "> 10 µM"],
  ["C[C@@H]1CN(c2ccc(C#N)c3ncccc23)C[C@H](CN2CCN(c3ccccn3)CC2)O1 [ER-888285, reference compound]", "IC20", "1.01 µM"]
]}

Annotate the compound `C[C@@H]1CN(c2ccc(C#N)c3ncccc23)C[C@H](CN2CCN(c3cc4c(cn3)CCNC4)CC2)O1` with its measured IC20. > 10 µM
